targetDesc: HDAC5 (Homo sapiens, UniProt Q9UQL6)
Construct: ICE Bioscience Inc. (contract assay provider)
Sequence (Q9UQL6 whole entry): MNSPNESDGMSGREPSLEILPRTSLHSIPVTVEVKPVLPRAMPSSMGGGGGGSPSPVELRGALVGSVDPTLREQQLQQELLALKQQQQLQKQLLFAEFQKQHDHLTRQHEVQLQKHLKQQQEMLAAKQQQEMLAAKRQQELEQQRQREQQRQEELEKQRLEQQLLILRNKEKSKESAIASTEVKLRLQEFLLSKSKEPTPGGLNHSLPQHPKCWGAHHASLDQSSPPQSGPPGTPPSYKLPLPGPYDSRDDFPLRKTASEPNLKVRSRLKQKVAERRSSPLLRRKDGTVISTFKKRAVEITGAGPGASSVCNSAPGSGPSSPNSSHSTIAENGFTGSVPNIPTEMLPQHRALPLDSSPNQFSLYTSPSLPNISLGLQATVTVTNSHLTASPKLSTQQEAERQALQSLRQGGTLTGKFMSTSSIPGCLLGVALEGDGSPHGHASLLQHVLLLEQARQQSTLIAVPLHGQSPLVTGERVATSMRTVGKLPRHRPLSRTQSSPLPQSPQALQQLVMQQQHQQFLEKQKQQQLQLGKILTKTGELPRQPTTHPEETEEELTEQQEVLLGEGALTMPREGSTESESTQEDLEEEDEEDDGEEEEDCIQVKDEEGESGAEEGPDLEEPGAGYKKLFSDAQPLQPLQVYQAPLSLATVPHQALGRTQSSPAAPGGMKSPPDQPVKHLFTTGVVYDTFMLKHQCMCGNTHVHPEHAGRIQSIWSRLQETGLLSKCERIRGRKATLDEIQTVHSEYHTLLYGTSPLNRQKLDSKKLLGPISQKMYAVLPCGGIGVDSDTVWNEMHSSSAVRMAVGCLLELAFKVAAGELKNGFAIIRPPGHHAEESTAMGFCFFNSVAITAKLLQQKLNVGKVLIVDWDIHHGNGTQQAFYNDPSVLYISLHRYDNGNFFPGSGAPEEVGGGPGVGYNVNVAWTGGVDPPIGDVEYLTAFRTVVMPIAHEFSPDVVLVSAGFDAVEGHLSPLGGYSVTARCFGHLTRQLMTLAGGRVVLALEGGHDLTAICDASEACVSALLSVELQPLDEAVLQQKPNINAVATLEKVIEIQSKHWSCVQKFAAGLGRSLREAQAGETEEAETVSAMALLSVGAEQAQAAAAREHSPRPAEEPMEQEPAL
procedureSummary: In vitro selectivity assay
Type: biochemical
conditionDescription: selectivity panel
measurementName: IC50

Asked: Input `Cn1cc(-c2cc3cnc(Nc4ccc(-c5cncn5/C=C/C(=O)NO)cc4Cl)cc3n2C(=O)OC(C)(C)C)cn1` , output reported IC50.
Given back: > 10 µM

* * *

Entries below carry reported pIC50 on UniProt Q9BY41.
Sequence (Q9BY41 whole entry): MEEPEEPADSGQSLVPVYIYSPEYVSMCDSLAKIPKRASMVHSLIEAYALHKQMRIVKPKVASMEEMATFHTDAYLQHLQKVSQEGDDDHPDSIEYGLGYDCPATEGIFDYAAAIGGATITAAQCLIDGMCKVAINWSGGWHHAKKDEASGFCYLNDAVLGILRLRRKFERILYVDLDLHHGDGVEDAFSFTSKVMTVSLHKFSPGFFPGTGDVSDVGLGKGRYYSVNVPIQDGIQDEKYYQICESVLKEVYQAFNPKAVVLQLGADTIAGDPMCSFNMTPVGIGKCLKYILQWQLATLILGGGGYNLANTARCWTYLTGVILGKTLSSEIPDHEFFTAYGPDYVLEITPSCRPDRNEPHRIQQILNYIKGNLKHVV
One number for each entry, as −log10 of the molar value.

Example cases with answers are listed next.
compound	pIC50
CC(C)(C)OC(=O)n1c(-c2cn[nH]c2C(F)F)cc2cnc(Nc3ccc(-c4cnc(C(F)(F)F)n4/C=C/C(=O)NO)cc3Cl)cc21	7.78
Cn1cc(-c2cc3cnc(Nc4ccc(-c5cncn5/C=C/C(=O)NO)cc4Cl)cc3n2C(=O)OC(C)(C)C)cn1	8.22
CC1=CC(c2cc3cnc(Nc4ccc(-c5cccc[n+]5/C=C/C(=O)NO)cc4Cl)cc3n2C(=O)OC(F)(F)F)C=N1 (stereo not drawn)	7.76
COc1cc(-c2cnc(C)n2/C=C/C(=O)NO)ccc1Nc1cc2c(cn1)cc(C1C=CN=C1)n2C(=O)OC(F)(F)F (stereo not drawn)	7.87
COc1cc(-c2cncn2/C=C/C(=O)NO)ccc1Nc1cc2c(cn1)cc(C1C=CN=C1)n2C(=O)OC(C)(C)C (stereo not drawn)	8.09

With those in mind, consider the next compound.
Asked: Input Cc1ncc(-c2ccc(Nc3cc4c(cn3)cc(C3C=NC(C(F)(F)F)=C3)n4C(=O)OC(C)(C)C)cc2)n1/C=C/C(=O)NO (stereo not drawn) , output reported pIC50.
Given back: 7.82

* * *

targetDesc: FGR (Homo sapiens, UniProt P09769)
procedureSummary: In vitro selectivity assay
Format: biochemical
conditionDescription: selectivity panel
Procedure: The inhibitory effects of compound MPH-5 on a panel of 68 kinases and other histone deacetylases were evaluated to assess the selectivity profile of MPH-5. This experiment was conducted by ICE Bioscience Inc. (Beijing, China).
measurementName: IC50

Asked: Input `Cn1cc(-c2cc3cnc(Nc4ccc(-c5cncn5/C=C/C(=O)NO)cc4Cl)cc3n2C(=O)OC(C)(C)C)cn1` , output reported IC50.
Given back: > 10 µM

* * *

targetDesc: UniProt Q08881
Sequence (Q08881 1-620): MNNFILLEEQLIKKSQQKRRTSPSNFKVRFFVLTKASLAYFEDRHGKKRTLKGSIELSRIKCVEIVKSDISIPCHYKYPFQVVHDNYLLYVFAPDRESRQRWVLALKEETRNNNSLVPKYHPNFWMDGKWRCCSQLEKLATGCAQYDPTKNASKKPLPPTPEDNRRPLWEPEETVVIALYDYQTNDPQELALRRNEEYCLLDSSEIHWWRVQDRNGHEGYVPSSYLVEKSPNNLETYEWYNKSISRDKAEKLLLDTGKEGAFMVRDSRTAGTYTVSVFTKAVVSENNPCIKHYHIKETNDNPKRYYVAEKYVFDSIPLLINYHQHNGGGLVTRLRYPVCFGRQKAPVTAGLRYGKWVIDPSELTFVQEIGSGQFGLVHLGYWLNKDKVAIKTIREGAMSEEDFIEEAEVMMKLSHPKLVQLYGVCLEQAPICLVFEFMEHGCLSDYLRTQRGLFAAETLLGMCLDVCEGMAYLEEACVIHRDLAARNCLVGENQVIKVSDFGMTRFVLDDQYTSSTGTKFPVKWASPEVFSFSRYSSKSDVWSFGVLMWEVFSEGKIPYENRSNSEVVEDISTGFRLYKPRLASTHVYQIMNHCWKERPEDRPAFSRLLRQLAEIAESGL
procedureSummary: In vitro selectivity assay
Type: biochemical
conditionDescription: selectivity panel
Protocol: The inhibitory effects of compound MPH-5 on a panel of 68 kinases and other histone deacetylases were evaluated to assess the selectivity profile of MPH-5. This experiment was conducted by ICE Bioscience Inc. (Beijing, China).
measurementName: IC50

Asked: Input `Cn1cc(-c2cc3cnc(Nc4ccc(-c5cncn5/C=C/C(=O)NO)cc4Cl)cc3n2C(=O)OC(C)(C)C)cn1` , output reported IC50.
Given back: > 10 µM

* * *

targetDesc: NTRK2 (Homo sapiens, UniProt Q16620)
Construct: ICE Bioscience Inc. (contract assay provider)
procedureSummary: In vitro selectivity assay
Format: biochemical
conditionDescription: selectivity panel
measurementName: IC50

Asked: Input `Cn1cc(-c2cc3cnc(Nc4ccc(-c5cncn5/C=C/C(=O)NO)cc4Cl)cc3n2C(=O)OC(C)(C)C)cn1` , output reported IC50.
Given back: > 10 µM

* * *

targetDesc: INSRR (Homo sapiens)
Sequence (P14616 27-1297): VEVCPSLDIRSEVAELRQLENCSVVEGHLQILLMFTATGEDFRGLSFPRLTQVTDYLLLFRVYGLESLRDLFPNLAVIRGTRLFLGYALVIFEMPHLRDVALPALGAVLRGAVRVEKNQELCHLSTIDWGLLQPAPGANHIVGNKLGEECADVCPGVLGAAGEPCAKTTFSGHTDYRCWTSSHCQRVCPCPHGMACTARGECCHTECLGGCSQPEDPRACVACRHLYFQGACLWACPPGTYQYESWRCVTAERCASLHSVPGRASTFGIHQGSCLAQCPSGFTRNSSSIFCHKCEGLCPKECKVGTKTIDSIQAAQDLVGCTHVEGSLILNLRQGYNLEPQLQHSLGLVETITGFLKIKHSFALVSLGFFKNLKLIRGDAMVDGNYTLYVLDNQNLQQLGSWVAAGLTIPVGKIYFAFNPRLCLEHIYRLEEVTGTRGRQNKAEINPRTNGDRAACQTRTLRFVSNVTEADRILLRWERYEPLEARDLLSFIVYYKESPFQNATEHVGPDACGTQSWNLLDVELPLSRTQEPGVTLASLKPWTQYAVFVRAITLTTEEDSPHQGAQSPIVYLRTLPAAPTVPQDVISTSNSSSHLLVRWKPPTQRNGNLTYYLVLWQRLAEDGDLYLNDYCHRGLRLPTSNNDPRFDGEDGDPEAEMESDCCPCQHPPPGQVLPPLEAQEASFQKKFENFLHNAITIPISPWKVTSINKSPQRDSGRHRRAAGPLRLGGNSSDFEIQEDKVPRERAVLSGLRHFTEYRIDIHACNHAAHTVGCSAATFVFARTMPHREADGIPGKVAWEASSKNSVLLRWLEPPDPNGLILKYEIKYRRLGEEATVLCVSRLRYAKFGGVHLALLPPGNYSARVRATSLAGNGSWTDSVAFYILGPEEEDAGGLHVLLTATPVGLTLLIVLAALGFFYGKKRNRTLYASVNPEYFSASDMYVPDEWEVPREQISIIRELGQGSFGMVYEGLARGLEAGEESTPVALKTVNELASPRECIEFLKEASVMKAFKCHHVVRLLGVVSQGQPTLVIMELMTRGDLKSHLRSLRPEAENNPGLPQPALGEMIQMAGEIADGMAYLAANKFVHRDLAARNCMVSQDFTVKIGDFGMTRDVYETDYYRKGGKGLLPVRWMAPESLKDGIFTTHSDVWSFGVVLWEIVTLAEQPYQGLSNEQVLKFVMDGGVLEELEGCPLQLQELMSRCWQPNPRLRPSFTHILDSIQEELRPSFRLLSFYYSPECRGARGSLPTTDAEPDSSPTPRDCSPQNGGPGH
procedureSummary: In vitro selectivity assay
Format: biochemical
conditionDescription: selectivity panel
measurementName: IC50

Asked: Input `Cn1cc(-c2cc3cnc(Nc4ccc(-c5cncn5/C=C/C(=O)NO)cc4Cl)cc3n2C(=O)OC(C)(C)C)cn1` , output reported IC50.
Given back: > 10 µM

* * *

targetDesc: ROS1 (Homo sapiens)
Sequence (P08922 28-2347): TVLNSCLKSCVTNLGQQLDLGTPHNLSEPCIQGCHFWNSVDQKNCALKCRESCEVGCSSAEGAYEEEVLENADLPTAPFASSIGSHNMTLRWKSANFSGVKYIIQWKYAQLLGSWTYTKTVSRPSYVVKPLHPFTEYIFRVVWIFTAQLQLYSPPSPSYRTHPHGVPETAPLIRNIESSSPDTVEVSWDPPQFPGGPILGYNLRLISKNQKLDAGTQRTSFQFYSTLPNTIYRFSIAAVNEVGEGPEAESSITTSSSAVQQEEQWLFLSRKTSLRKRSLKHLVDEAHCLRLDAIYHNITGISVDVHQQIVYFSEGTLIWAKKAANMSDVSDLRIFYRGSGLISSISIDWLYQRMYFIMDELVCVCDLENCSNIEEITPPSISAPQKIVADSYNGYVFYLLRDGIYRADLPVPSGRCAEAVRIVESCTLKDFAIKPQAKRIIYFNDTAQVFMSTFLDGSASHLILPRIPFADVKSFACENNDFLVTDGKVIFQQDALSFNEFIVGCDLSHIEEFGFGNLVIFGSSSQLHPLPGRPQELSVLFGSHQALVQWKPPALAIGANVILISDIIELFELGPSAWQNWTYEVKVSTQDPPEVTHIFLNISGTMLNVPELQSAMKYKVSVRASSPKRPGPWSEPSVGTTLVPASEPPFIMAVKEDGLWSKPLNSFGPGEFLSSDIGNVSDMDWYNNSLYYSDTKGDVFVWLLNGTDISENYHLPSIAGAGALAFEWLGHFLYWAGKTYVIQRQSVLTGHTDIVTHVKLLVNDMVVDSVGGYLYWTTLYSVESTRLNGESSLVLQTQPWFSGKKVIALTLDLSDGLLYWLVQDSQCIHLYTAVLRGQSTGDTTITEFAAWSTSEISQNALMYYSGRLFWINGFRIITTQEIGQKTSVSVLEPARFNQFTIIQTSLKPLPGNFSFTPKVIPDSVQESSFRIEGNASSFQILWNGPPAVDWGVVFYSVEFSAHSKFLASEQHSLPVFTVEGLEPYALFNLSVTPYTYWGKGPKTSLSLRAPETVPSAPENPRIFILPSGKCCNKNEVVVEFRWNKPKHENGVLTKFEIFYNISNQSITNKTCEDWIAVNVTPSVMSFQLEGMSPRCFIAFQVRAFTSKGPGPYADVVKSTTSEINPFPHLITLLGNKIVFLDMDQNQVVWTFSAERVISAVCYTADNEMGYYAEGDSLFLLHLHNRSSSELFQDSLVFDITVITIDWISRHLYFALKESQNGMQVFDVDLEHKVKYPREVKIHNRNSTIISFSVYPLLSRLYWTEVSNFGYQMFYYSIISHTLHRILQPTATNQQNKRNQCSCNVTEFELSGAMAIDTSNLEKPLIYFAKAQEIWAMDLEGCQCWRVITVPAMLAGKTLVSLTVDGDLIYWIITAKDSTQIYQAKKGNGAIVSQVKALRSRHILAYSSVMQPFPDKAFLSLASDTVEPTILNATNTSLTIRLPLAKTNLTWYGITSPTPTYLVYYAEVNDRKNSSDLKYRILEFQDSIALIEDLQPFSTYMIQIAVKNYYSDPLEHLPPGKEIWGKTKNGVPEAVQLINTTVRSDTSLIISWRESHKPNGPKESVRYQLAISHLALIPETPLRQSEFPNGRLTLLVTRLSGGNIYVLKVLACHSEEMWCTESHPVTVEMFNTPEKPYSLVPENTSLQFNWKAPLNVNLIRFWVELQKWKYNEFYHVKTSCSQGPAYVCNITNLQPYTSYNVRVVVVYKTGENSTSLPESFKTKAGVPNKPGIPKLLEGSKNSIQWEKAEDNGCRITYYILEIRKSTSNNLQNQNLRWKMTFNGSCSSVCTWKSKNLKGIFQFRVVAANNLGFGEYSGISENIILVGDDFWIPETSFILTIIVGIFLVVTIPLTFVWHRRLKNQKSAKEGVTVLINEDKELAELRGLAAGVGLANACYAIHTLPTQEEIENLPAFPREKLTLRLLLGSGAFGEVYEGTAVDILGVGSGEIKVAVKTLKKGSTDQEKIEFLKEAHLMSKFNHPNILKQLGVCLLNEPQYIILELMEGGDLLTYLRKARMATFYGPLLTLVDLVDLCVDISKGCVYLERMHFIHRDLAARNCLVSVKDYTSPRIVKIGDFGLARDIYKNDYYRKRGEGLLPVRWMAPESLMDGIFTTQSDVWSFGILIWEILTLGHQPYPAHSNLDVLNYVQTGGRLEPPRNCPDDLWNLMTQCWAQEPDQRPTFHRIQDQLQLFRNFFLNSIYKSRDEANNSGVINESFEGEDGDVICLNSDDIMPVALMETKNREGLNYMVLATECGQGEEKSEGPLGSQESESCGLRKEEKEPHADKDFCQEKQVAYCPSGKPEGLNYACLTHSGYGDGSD
procedureSummary: In vitro selectivity assay
Format: biochemical
conditionDescription: selectivity panel
measurementName: IC50

Asked: Input `Cn1cc(-c2cc3cnc(Nc4ccc(-c5cncn5/C=C/C(=O)NO)cc4Cl)cc3n2C(=O)OC(C)(C)C)cn1` , output reported IC50.
Given back: > 10 µM

* * *

Test system: HepG2 liver cancer cells
procedureSummary: MTT cytotoxicity assay, HepG2
Type: cell-based
conditionDescription: Homo sapiens, 72 h cell treatment
Description: The cells (5 × 10^4 cells/well) were incubated overnight in 96-well plates. A series of solutions containing varying concentrations of inhibitors were added and incubated at 37°C for a period of 72 h. Subsequently, the culture medium was removed, followed by a subsequent incubation of the cells with a 5 mg/mL MTT stock solution for 4 h. […] Finally, the absorbance measurement at 570 nm was completed using a microplate reader. […]
Assign IC50 to each entry below.
One number for each entry, in µM.

# per-item lookup of IC50; items listed below
1. CC(C)(C)OC(=O)n1c(-c2cn[nH]c2C(F)F)cc2cnc(Nc3ccc(-c4cnc(C(F)(F)F)n4/C=C/C(=O)NO)cc3Cl)cc21
2. Cc1ncc(-c2ccc(Nc3cc4c(cn3)cc(C3C=NC(C(F)(F)F)=C3)n4C(=O)OC(C)(C)C)cc2)n1/C=C/C(=O)NO (stereo not drawn)
3. COc1cc(-c2cnc(C)n2/C=C/C(=O)NO)ccc1Nc1cc2c(cn1)cc(C1C=CN=C1)n2C(=O)OC(F)(F)F (stereo not drawn)
4. Cn1cc(-c2cc3cnc(Nc4ccc(-c5cncn5/C=C/C(=O)NO)cc4Cl)cc3n2C(=O)OC(C)(C)C)cn1
5. COc1cc(-c2cncn2/C=C/C(=O)NO)ccc1Nc1cc2c(cn1)cc(C1C=CN=C1)n2C(=O)OC(C)(C)C (stereo not drawn)
6. CC1=CC(c2cc3cnc(Nc4ccc(-c5cccc[n+]5/C=C/C(=O)NO)cc4Cl)cc3n2C(=O)OC(F)(F)F)C=N1 (stereo not drawn)

Given back:
1. 0.53
2. 0.55
3. 0.41
4. 0.19
5. 0.32
6. 0.47

* * *

targetDesc: PTK2 (Homo sapiens, UniProt Q05397)
Construct: ICE Bioscience Inc. (contract assay provider)
procedureSummary: In vitro selectivity assay
Assay type: biochemical
conditionDescription: selectivity panel
measurementName: IC50

Asked: Input `Cn1cc(-c2cc3cnc(Nc4ccc(-c5cncn5/C=C/C(=O)NO)cc4Cl)cc3n2C(=O)OC(C)(C)C)cn1` , output reported IC50.
Given back: > 10 µM

* * *

targetDesc: FGFR3 (Homo sapiens, UniProt P22607)
procedureSummary: In vitro selectivity assay
Format: biochemical
conditionDescription: selectivity panel
measurementName: IC50

Asked: Input `Cn1cc(-c2cc3cnc(Nc4ccc(-c5cncn5/C=C/C(=O)NO)cc4Cl)cc3n2C(=O)OC(C)(C)C)cn1` , output reported IC50.
Given back: > 10 µM

* * *

targetDesc: EPHB1 (Homo sapiens, UniProt P54762)
Construct: ICE Bioscience Inc. (assay service)
procedureSummary: In vitro selectivity assay
Assay type: biochemical
conditionDescription: selectivity panel
measurementName: IC50

Asked: State, for EPHB1 (Homo sapiens, UniProt P54762), measured IC50 of the molecule listed here: `Cn1cc(-c2cc3cnc(Nc4ccc(-c5cncn5/C=C/C(=O)NO)cc4Cl)cc3n2C(=O)OC(C)(C)C)cn1`
Given back: > 10 µM

* * *

targetDesc: UniProt:Q9NYL2
procedureSummary: In vitro selectivity assay
Assay type: biochemical
conditionDescription: selectivity panel
measurementName: IC50

Asked: Input `Cn1cc(-c2cc3cnc(Nc4ccc(-c5cncn5/C=C/C(=O)NO)cc4Cl)cc3n2C(=O)OC(C)(C)C)cn1` , output reported IC50.
Given back: > 10 µM

* * *

targetDesc: INSR (Homo sapiens, UniProt P06213)
procedureSummary: In vitro selectivity assay
Assay type: biochemical
conditionDescription: selectivity panel
measurementName: IC50

Asked: Input `Cn1cc(-c2cc3cnc(Nc4ccc(-c5cncn5/C=C/C(=O)NO)cc4Cl)cc3n2C(=O)OC(C)(C)C)cn1` , output reported IC50.
Given back: > 10 µM
